pIC50 values for the compounds below.
- TEST TARGET: Nociceptin receptor (Homo sapiens)
- MEASUREMENT DESCRIPTION: Cell-Based NOP Assay: Formula (I) compounds were tested for antagonism of the nociceptin receptor (NOP) in a cell-based cAMP assay, using the LANCE cAMP Detection Kit, Perkin Elmer (Waltham, Mass.). This assay (LANCE cAMP) is a homogeneous, time-resolved fluorescence resonance energy transfer (TR-FRET) immunoassay designed to measure cAMP produced upon modulation of adenylyl cyclase activity by G protein-coupled receptors (GPCRs).ProtocolCells expressing human opioid NOP (ValiScreen cell line, cat #ES-230-C Perkin Elmer (Waltham, Mass.) were dispensed in simulation buffer (5 mM Hepes, 0.1% BSA, 0.5 mM IBMX in Hanks Buffered Saline Solution) at 2.5 μL cells per well (400 cells/well) into a 1536 white TC-treated assay plate. Compound was then added and plates were incubated for 15 minutes at room temperature. To each well was added 2.5 μL of a solution containing forskolin (3 μM final) and nociceptin peptide (390 pM final) diluted in stimulation buffer, and the plates were incubated for 30 minutes at room temperature. To each well was dispensed 5 μL of LANCE Ultra detection (1:300 dilution of anti-cAMP ULight with a 1:100 dilution of Eu-cAMP tracer diluted in cAMP Detection Buffer) reagent, and the plates were incubated for 1 hr at room temperature. The plate was then read on the ViewLux microplate reader (Perkin Elmer, Waltham, Mass.) using the LANCE 1536 protocol with 60 second exposure times and 50 μs delay. This protocol has an excitation wavelength of 340 nm (DUG11 filter) and emission wavelengths of 615 nm (Eu-Donor) and 665 nm (Alexa 647 cAMP antibody acceptor).Data AnalysisData was analyzed, normalized, and visualized using ACAS (John McNeil & Co.). Efficacy was calculated using activity of the vehicle (DMSO) as 0% efficacy and the activity of the corresponding reference positive control (SCH 221510, Tocris Bioscience (Pittsburgh, Pa.), Catalog number 3240) as 100% efficacy. Activity was calculated as the ratio of donor and acceptor emissions. All curve fits and IC50 determinations were performed using a non-linear regression model. The IC50 value was measured as the concentration at which half-maximal response was calculated.
pIC50: −log10 of the molar value.

These recorded examples may help you get a feel for the data.
COMPOUND: Cc1cnccc1C1CCC(CCNC2CCOCC2)CC1 (stereo unspecified)
pIC50: 6.00 to 7.00

COMPOUND: Cc1cc(F)ccc1[C@H]1CC[C@H](CCNC2CCOCC2)CC1
pIC50: 8.00 to 9.00

COMPOUND: COCC1(NCCC2CCC(c3ncc(F)cc3Cl)CC2)CCOCC1 (stereo unspecified)
pIC50: 6.00 to 7.00

COMPOUND: Fc1cnc([C@H]2CC[C@@H](CCNC3CCOCC3)CC2)nc1
pIC50: 6.00 to 7.00

COMPOUND: Cc1cc(F)c(F)cc1[C@H]1CC[C@@H](CCN[C@@H]2CCNC(=O)C2)CC1
pIC50: 8.00 to 9.00

Please fill in: pIC50 reported for CNC(=O)C1(NCCC2CCC(c3ccc(Cl)cc3F)CC2)CCCC1 (stereo unspecified) = 6.00 to 7.00

COCC1(NCC[C@H]2CC[C@@H](c3ncc(F)cc3Cl)CC2)CCOCC1 has a reported pIC50 of 7.00 to 8.00

The recorded pIC50 for O=C1C[C@@H](NCC[C@H]2CC[C@@H](c3ncc(F)cc3Cl)CC2)CCN1 is 7.00 to 8.00

---

- TEST TARGET: UniProtKB P41146
- MEASUREMENT DESCRIPTION: Cell-Based NOP Assay: Formula (I) compounds were tested for antagonism of the nociceptin receptor (NOP) in a cell-based cAMP assay, using the LANCE cAMP Detection Kit, Perkin Elmer (Waltham, Mass.). This assay (LANCE cAMP) is a homogeneous, time-resolved fluorescence resonance energy transfer (TR-FRET) immunoassay designed to measure cAMP produced upon modulation of adenylyl cyclase activity by G protein-coupled receptors (GPCRs).ProtocolCells expressing human opioid NOP (ValiScreen cell line, cat #ES-230-C Perkin Elmer (Waltham, Mass.) were dispensed in simulation buffer (5 mM Hepes, 0.1% BSA, 0.5 mM IBMX in Hanks Buffered Saline Solution) at 2.5 μL cells per well (400 cells/well) into a 1536 white TC-treated assay plate. Compound was then added and plates were incubated for 15 minutes at room temperature. To each well was added 2.5 μL of a solution containing forskolin (3 μM final) and nociceptin peptide (390 pM final) diluted in stimulation buffer, and the plates were incubated for 30 minutes at room temperature. To each well was dispensed 5 μL of LANCE Ultra detection (1:300 dilution of anti-cAMP ULight with a 1:100 dilution of Eu-cAMP tracer diluted in cAMP Detection Buffer) reagent, and the plates were incubated for 1 hr at room temperature. The plate was then read on the ViewLux microplate reader (Perkin Elmer, Waltham, Mass.) using the LANCE 1536 protocol with 60 second exposure times and 50 μs delay. This protocol has an excitation wavelength of 340 nm (DUG11 filter) and emission wavelengths of 615 nm (Eu-Donor) and 665 nm (Alexa 647 cAMP antibody acceptor).Data AnalysisData was analyzed, normalized, and visualized using ACAS (John McNeil & Co.). Efficacy was calculated using activity of the vehicle (DMSO) as 0% efficacy and the activity of the corresponding reference positive control (SCH 221510, Tocris Bioscience (Pittsburgh, Pa.), Catalog number 3240) as 100% efficacy. Activity was calculated as the ratio of donor and acceptor emissions. All curve fits and IC50 determinations were performed using a non-linear regression model. The IC50 value was measured as the concentration at which half-maximal response was calculated.
ENDPOINT: IC50

COMPOUND: Cc1ccncc1[C@H]1CC[C@H](CCNC2CCOCC2)CC1
IC50: 0.1 to 1 µM

In plain terms, Fc1ccc([C@H]2CC[C@@H](CCNC3CCCC3)CC2)c(Cl)c1 has a documented IC50 of < 0.001 µM

Sample NC(=O)C1(NCC[C@H]2CC[C@H](c3cc(F)ccc3Cl)CC2)CCOCC1 ; IC50 observed: 0.01 to 0.1 µM

---

- TEST TARGET: Nociceptin receptor (Homo sapiens, UniProt P41146)
- Sequence (P41146 whole entry): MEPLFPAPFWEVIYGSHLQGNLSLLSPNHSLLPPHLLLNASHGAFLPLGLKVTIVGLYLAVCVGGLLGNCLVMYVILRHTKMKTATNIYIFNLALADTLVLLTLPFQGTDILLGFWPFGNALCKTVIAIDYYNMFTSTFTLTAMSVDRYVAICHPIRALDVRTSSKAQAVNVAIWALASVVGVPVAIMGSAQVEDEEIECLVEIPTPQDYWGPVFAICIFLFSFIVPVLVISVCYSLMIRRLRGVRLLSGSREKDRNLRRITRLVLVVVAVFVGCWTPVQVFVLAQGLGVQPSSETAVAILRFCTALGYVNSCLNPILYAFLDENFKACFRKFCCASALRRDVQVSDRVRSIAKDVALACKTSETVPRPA
- MEASUREMENT DESCRIPTION: Cell-Based NOP Assay: Formula (I) compounds were tested for antagonism of the nociceptin receptor (NOP) in a cell-based cAMP assay, using the LANCE cAMP Detection Kit, Perkin Elmer (Waltham, Mass.). This assay (LANCE cAMP) is a homogeneous, time-resolved fluorescence resonance energy transfer (TR-FRET) immunoassay designed to measure cAMP produced upon modulation of adenylyl cyclase activity by G protein-coupled receptors (GPCRs).ProtocolCells expressing human opioid NOP (ValiScreen cell line, cat #ES-230-C Perkin Elmer (Waltham, Mass.) were dispensed in simulation buffer (5 mM Hepes, 0.1% BSA, 0.5 mM IBMX in Hanks Buffered Saline Solution) at 2.5 μL cells per well (400 cells/well) into a 1536 white TC-treated assay plate. Compound was then added and plates were incubated for 15 minutes at room temperature. To each well was added 2.5 μL of a solution containing forskolin (3 μM final) and nociceptin peptide (390 pM final) diluted in stimulation buffer, and the plates were incubated for 30 minutes at room temperature. To each well was dispensed 5 μL of LANCE Ultra detection (1:300 dilution of anti-cAMP ULight with a 1:100 dilution of Eu-cAMP tracer diluted in cAMP Detection Buffer) reagent, and the plates were incubated for 1 hr at room temperature. The plate was then read on the ViewLux microplate reader (Perkin Elmer, Waltham, Mass.) using the LANCE 1536 protocol with 60 second exposure times and 50 μs delay. This protocol has an excitation wavelength of 340 nm (DUG11 filter) and emission wavelengths of 615 nm (Eu-Donor) and 665 nm (Alexa 647 cAMP antibody acceptor).Data AnalysisData was analyzed, normalized, and visualized using ACAS (John McNeil & Co.). Efficacy was calculated using activity of the vehicle (DMSO) as 0% efficacy and the activity of the corresponding reference positive control (SCH 221510, Tocris Bioscience (Pittsburgh, Pa.), Catalog number 3240) as 100% efficacy. Activity was calculated as the ratio of donor and acceptor emissions. All curve fits and IC50 determinations were performed using a non-linear regression model. The IC50 value was measured as the concentration at which half-maximal response was calculated.
ENDPOINT: IC50

COMPOUND: Fc1cccc(Cl)c1C1CCC(CCNC2CCCCC2)CC1 (stereo unspecified)
IC50: 1 to 10 nM

COMPOUND: CN1CCC(NCCC2CCC(c3c(F)cccc3Cl)CC2)CC1 (stereo unspecified)
IC50: 100 to 1000 nM

COMPOUND: CNC(=O)C1(NCC[C@H]2CC[C@@H](c3ccc(F)cc3Cl)CC2)CCOCC1
IC50: < 1 nM

COMPOUND: COCC1(NCCC2CCC(c3cccc(F)c3Cl)CC2)CCOCC1 (stereo unspecified)
IC50: 100 to 1000 nM

COMPOUND: Cc1cc(F)c(F)cc1[C@H]1CC[C@H](CCNC2(C(N)=O)CCOCC2)CC1
IC50: 100 to 1000 nM

COMPOUND: Clc1cccnc1[C@H]1CC[C@H](CCNC2CCOCC2)CC1
IC50: 10 to 100 nM

COMPOUND: O=C1C[C@@H](NCC[C@H]2CC[C@@H](c3ccc(F)cc3Cl)CC2)CCN1
IC50: 1 to 10 nM

COMPOUND: Oc1cccc([C@H]2CC[C@H](CCNC3CCOCC3)CC2)c1
IC50: 100 to 1000 nM

Field IC50 (entry COCC1(NCC[C@H]2CC[C@@H](c3ccc(F)cc3Cl)CC2)CCNC(=O)C1 (stereo partly specified) ) reads 10 to 100 nM

# compound NC(=O)C1(NCC[C@H]2CC[C@@H](c3ccc(F)cc3F)CC2)CCOCC1 ; its IC50 = 10 to 100 nM

Value of IC50 reported for the compound Cc1cccnc1[C@H]1CC[C@@H](CCNC2CCOCC2)CC1 is 10 to 100 nM
